Field: pKd. Provide a value for each of the binders that follow.
- TEST_TARGET: SNX27, Q96L92
- PROTOCOL: holdup assay
- Parameters: key: below the threshold = too weak to quantify, mostly under pKd 3.1 to 4
- MEASUREMENT_SETUP: plain residues with an end cap or a label only (N-terminal biotin on a linker: ttds)
Numbers only.

Examples with their reported pKd follow.
RHTTSTETAV [HPV30-E6, P36809] : 5.64
SSLQSLETSV [ATP2B4, P23634] : 5.7
PVRVCEETSL [OTULIN, Q96BN8] : 5.58
VDFPPKESSL [ACVR2A, P27037] : 4.38

List the reported pKd of each binder below.
1. SKPTRRETEV [HPV35-E6, P27228]
2. KKYVDAETSL [SLC4A7, Q9Y6M7]
3. FHPLGADSQV [SLC2A1, P11166]
4. RLPKIKETTV [FRMPD4, Q14CM0]
5. QRQARSETLV [HPV59-E6, Q81964]
6. RLQRRRETQV [HPV18-E6, P06463]
7. DKDPHSETAL [TMIGD1, Q6UXZ0]
8. NDPAWDETNL [ARHGEF7, Q14155;Q14155-1]

Given back:
1. 4.66
2. 5.71
3. 4.05
4. 5.73
5. 4.64
6. 4.55
7. 5.49
8. 5.66

Asked: What does the data say about its pKd? Entry: EVVHTPETSV [SLC16A3, O15427]
Given back: 5.15

Reference source: paper PMC9482650
